System: Candida rugosa ATCC 10571
Assay: MIC broth microdilution
Assay type: cell-based
Conditions: Diutina rugosa, ATCC10571; C. rugosa; value in parentheses; read-out: MIC
QUANTITY_NAME: log10 MIC (log10 of the value in µM)

> print(dat)
                                   compound  quantity.name  observed.value
1  CCCCCCCCCCCCNC(=O)C(CCCNC(=N)N)NC(=O)C(N)Cc1c[nH]c2ccccc12 (stereo not drawn)      log10 MIC            0.85
2  CCCCCCCCCCCCCCNC(=O)C(CCCNC(=N)N)NC(=O)C(N)Cc1c[nH]c2ccccc12 (stereo not drawn)      log10 MIC            0.85
3  CCCCCCCCCCCC(=O)NC(CCCNC(=N)N)C(=O)OC (stereo not drawn) [C12AM]      log10 MIC            2.19
4  CCCCCCCCCCNC(=O)C(CCCNC(=N)N)NC(=O)C(N)Cc1c[nH]c2ccccc12 (stereo not drawn)      log10 MIC            0.85
5  CCCCCCCCCCCCNC(=O)C(N)Cc1ccccc1 (stereo not drawn)      log10 MIC            1.94
6  CCCCCCCCCCCCNC(=O)C(CCCNC(=N)N)NC(=O)C(N)Cc1ccccc1 (stereo not drawn)      log10 MIC            2.05
7  CCCCCCCCCCNC(=O)C(CCCNC(=N)N)NC(=O)C(N)Cc1ccccc1 (stereo not drawn)      log10 MIC            2.38
8  CCCCCCCCCCCCCCNC(=O)C(CCCNC(=N)N)NC(=O)C(N)Cc1ccccc1 (stereo not drawn)      log10 MIC            1.43

* * *

Test: Cytotoxicity, MTT assay
Assay type: cell-based, Swiss mouse
Details: mouse, 3T3 fibroblast cells, 3T3, MTT, at 50 µg/mL, read-out: cell viability
# viability at 24 h, 50 µg/mL per record follows
QUANTITY_NAME: viability at 24 h, 50 µg/mL

> print(dat)
                                   molecule  observed.value
1  CCCCCCCCCCCCNC(=O)C(CCCNC(=N)N)NC(=O)C(N)Cc1ccccc1 (centres unmarked) [PANHC12]            ~70%
2  CCCCCCCCCCCCNC(=O)C(N)Cc1ccccc1 (centres unmarked) [PNHC12]             ~0%

* * *

Assay: Cytotoxicity, MTT assay
Type: cell-based, Swiss mouse
Conditions: mouse, 3T3 fibroblast cells, 3T3, MTT, across all concentrations up to 100 µg/mL, read-out: cell viability
QUANTITY_NAME: viability at 24 h

> print(dat)
                                   molecule  observed.value
1  CCCCCCCCCCCC(=O)NC(CCCNC(=N)N)C(=O)OC (stereo not shown) [C12AM]           > 85%

* * *

Tested on: Candida auris ATCC 21092
Assay: MIC broth microdilution
Type: cell-based
Details: C. auris; Table S2
QUANTITY_NAME: Selectivity Index (HC50/MIC)

> print(dat)
                                   compound              study.target  observed.value
1  CCCCCCCCCCCCCCNC(=O)C(CCCNC(=N)N)NC(=O)C(N)Cc1c[nH]c2ccccc12 (stereo not drawn)  Candida auris ATCC 21092             1.1
2  CCCCCCCCCCCCNC(=O)C(CCCNC(=N)N)NC(=O)C(N)Cc1ccccc1 (stereo not drawn)  Candida auris ATCC 21092             0.4
3  CCCCCCCCCCNC(=O)C(CCCNC(=N)N)NC(=O)C(N)Cc1ccccc1 (stereo not drawn)  Candida auris ATCC 21092             0.8
4  CCCCCCCCCCNC(=O)C(CCCNC(=N)N)NC(=O)C(N)Cc1c[nH]c2ccccc12 (stereo not drawn)  Candida auris ATCC 21092             0.6
5  CCCCCCCCCCCCNC(=O)C(CCCNC(=N)N)NC(=O)C(N)Cc1c[nH]c2ccccc12 (stereo not drawn)  Candida auris ATCC 21092             0.1
6  CCCCCCCCCCCCCCNC(=O)C(CCCNC(=N)N)NC(=O)C(N)Cc1ccccc1 (stereo not drawn)  Candida auris ATCC 21092             1.2

* * *

System: Candida parapsilosis ATCC 22019
Assay: MIC broth microdilution
Assay type: cell-based
Conditions: Lodderomyces parapsilosis, ATCC22019; C. parapsilosis; RPMI 1640, 24 h, 30 °C; read-out: MIC
# MIC per record follows
QUANTITY_NAME: MIC (µg/mL)

> print(dat)
                                   compound                     study.target  unit.label  observed.value
1  CCCCCCCCNC(=O)C(CCCNC(=N)N)NC(=O)C(N)Cc1ccccc1 (stereo not drawn) [PANHC8]  Candida parapsilosis ATCC 22019       µg/mL             256
2  CCCCCCCCCCNC(=O)C(CCCNC(=N)N)NC(=O)C(N)Cc1ccccc1 (stereo not drawn) [PANHC10]  Candida parapsilosis ATCC 22019       µg/mL              64
3  CCCCCCCCCCNC(=O)C(CCCNC(=N)N)NC(=O)C(N)Cc1c[nH]c2ccccc12 (stereo not drawn) [TANHC10]  Candida parapsilosis ATCC 22019       µg/mL              64
4  CCCCCCCCCCCCNC(=O)C(CCCNC(=N)N)NC(=O)C(N)Cc1ccccc1 (stereo not drawn) [PANHC12]  Candida parapsilosis ATCC 22019       µg/mL              32
5  CCCCCCCCCCCCNC(=O)C(CCCNC(=N)N)NC(=O)C(N)Cc1c[nH]c2ccccc12 (stereo not drawn) [TANHC12]  Candida parapsilosis ATCC 22019       µg/mL              32
6  CCCCCCCCCCCCCCNC(=O)C(CCCNC(=N)N)NC(=O)C(N)Cc1c[nH]c2ccccc12 (stereo not drawn) [TANHC14]  Candida parapsilosis ATCC 22019       µg/mL              16
7  CCCCCCCCCCCCCCNC(=O)C(CCCNC(=N)N)NC(=O)C(N)Cc1ccccc1 (stereo not drawn) [PANHC14]  Candida parapsilosis ATCC 22019       µg/mL               8
8  CCCCCCCCCCCC(=O)NC(CCCNC(=N)N)C(=O)OC (stereo not drawn) [C12AM]  Candida parapsilosis ATCC 22019       µg/mL              16
9  CCCCCCCCCCCCNC(=O)C(N)Cc1ccccc1 (stereo not drawn) [PNHC12]  Candida parapsilosis ATCC 22019       µg/mL              32

* * *

# γc (surface tension at the cmc) per record follows
Assay: Surface tension, pendant drop tensiometer (cmc, γc)
Assay type: physicochemical
QUANTITY_NAME: γc (surface tension at the cmc) (mNm^−1)

> print(dat)
                                   compound                    quantity.name  observed.value
1  CCCCCCCCCCCCCCNC(=O)C(CCCNC(=N)N)NC(=O)C(N)Cc1ccccc1 (stereo not drawn)  γc (surface tension at the cmc)            28.7
2  CCCCCCCCCCCCNC(=O)C(CCCNC(=N)N)NC(=O)C(N)Cc1ccccc1 (stereo not drawn)  γc (surface tension at the cmc)            30.4
3  CCCCCCCCCCCC(=O)NC(CCCNC(=N)N)C(=O)OC (stereo not drawn) [C12AM]  γc (surface tension at the cmc)            29.5

* * *

Tested on: Cyberlindnera jadinii ATCC 60459 (C. jardinii)
Assay: MIC broth microdilution
Assay type: cell-based
Conditions: C. jardini; Table S2
# Selectivity Index (HC50/MIC) per record follows
QUANTITY_NAME: Selectivity Index (HC50/MIC)

> print(dat)
                                   compound  observed.value
1  CCCCCCCCCCNC(=O)C(CCCNC(=N)N)NC(=O)C(N)Cc1c[nH]c2ccccc12 (stereo not drawn) [TANHC10]            1.15
2  CCCCCCCCCCNC(=O)C(CCCNC(=N)N)NC(=O)C(N)Cc1ccccc1 (stereo not drawn) [PANHC10]             1.6
3  CCCCCCCCCCCCCCNC(=O)C(CCCNC(=N)N)NC(=O)C(N)Cc1ccccc1 (stereo not drawn) [PANHC14]             1.2
4  CCCCCCCCCCCCNC(=O)C(CCCNC(=N)N)NC(=O)C(N)Cc1c[nH]c2ccccc12 (stereo not drawn) [TANHC12]            0.25
5  CCCCCCCCCCCCNC(=O)C(CCCNC(=N)N)NC(=O)C(N)Cc1ccccc1 (stereo not drawn) [PANHC12]             0.8
6  CCCCCCCCCCCCCCNC(=O)C(CCCNC(=N)N)NC(=O)C(N)Cc1c[nH]c2ccccc12 (stereo not drawn) [TANHC14]             1.9
